testSystem: HCMV C-A (HCMV Pr C84A, C87A, C138A, C202A) (Human cytomegalovirus, UniProt P16753, A143V/A209V/C138A/C202A/C84A/C87A)
assayInfo: biochemical

[
  {
    "smilesString": "O=C(CCl)Cn1nnc(-c2ccccc2)c1COC(=O)NCCCN1CCCC1=O",
    "IC50": "135 µM"
  },
  {
    "smilesString": "O=C(CCl)Cn1nnc(-c2ccccc2)c1COC(=O)NCCN1CCOCC1",
    "IC50": "182 µM"
  },
  {
    "smilesString": "CN(C)C(=O)OCc1c(-c2ccccc2)nnn1CC(=O)CCl",
    "IC50": "101 µM"
  },
  {
    "smilesString": "COCCNC(=O)OCc1c(-c2ccccc2)nnn1CC(=O)CCl",
    "IC50": "54 µM"
  },
  {
    "smilesString": "O=C(CCl)Cn1cc(-c2ccccc2)nn1",
    "IC50": "25 µM"
  },
  {
    "smilesString": "O=C(CCl)Cn1cc(-c2ccc(Br)cc2)nn1",
    "IC50": "25 µM"
  },
  {
    "smilesString": "O=C(CCl)Cn1cc(-c2ccc([N+](=O)[O-])cc2)nn1",
    "IC50": "22 µM"
  },
  {
    "smilesString": "O=C(CCl)Cn1cc(-c2cccc(Cl)c2)nn1",
    "IC50": "30 µM"
  },
  {
    "smilesString": "N#Cc1ccc(-c2cn(CC(=O)CCl)nn2)cc1",
    "IC50": "33 µM"
  },
  {
    "smilesString": "CNC(=O)OCc1c(-c2ccccc2)nnn1CC(=O)CCl",
    "IC50": "60 µM"
  },
  {
    "smilesString": "O=C(CCl)Cn1nnc(-c2ccccc2)c1COC(=O)NCc1ccccc1",
    "IC50": "33 µM"
  },
  {
    "smilesString": "O=C(CCl)Cn1nnc(-c2ccccc2)c1COC(=O)N1CCOCC1",
    "IC50": "66 µM"
  },
  {
    "smilesString": "CC(=O)Nc1cccc(-c2cn(CC(=O)CCl)nn2)c1",
    "IC50": "46 µM"
  },
  {
    "smilesString": "O=C(CCl)Cn1cc(-c2ccc(Cl)cc2)nn1",
    "IC50": "32 µM"
  }
]

* * *

Below are compounds with their log10 of IC50 as measured on HSV1 Pr (Human herpesvirus 1, UniProt P10210).
testReadout: log10 of IC50 (log10 of the value in µM)

[
  {
    "smilesString": "O=C(CCl)Cn1cc(-c2ccc(Br)cc2)nn1",
    "log10 of IC50": 1.54
  },
  {
    "smilesString": "CC(=O)Nc1cccc(-c2cn(CC(=O)CCl)nn2)c1",
    "log10 of IC50": 2.27
  },
  {
    "smilesString": "O=C(CCl)Cn1cc(-c2cccc(Cl)c2)nn1",
    "log10 of IC50": 2.16
  },
  {
    "smilesString": "O=C(CCl)Cn1cc(-c2ccc(Cl)cc2)nn1",
    "log10 of IC50": 1.99
  },
  {
    "smilesString": "N#Cc1ccc(-c2cn(CC(=O)CCl)nn2)cc1",
    "log10 of IC50": 2.32
  },
  {
    "smilesString": "O=C(CCl)Cn1cc(-c2ccc([N+](=O)[O-])cc2)nn1",
    "log10 of IC50": 1.71
  },
  {
    "smilesString": "O=C(CCl)Cn1nnc(-c2ccccc2)c1COC(=O)N1CCOCC1",
    "log10 of IC50": 2.83
  },
  {
    "smilesString": "COCCNC(=O)OCc1c(-c2ccccc2)nnn1CC(=O)CCl",
    "log10 of IC50": 2.92
  }
]

* * *

Here the recorded IC50 is given for each entry.
testSystem: UniProt P10210
testReadout: IC50

[
  {
    "compound": "CN(C)C(=O)OCc1c(-c2ccccc2)nnn1CC(=O)CCl [Compound 42]",
    "testReadout": "IC50",
    "result": "> 1000 µM"
  },
  {
    "compound": "O=C(CCl)Cn1nnc(-c2ccccc2)c1COC(=O)NCc1ccccc1 [Compound 43]",
    "testReadout": "IC50",
    "result": "> 1000 µM"
  },
  {
    "compound": "CNC(=O)OCc1c(-c2ccccc2)nnn1CC(=O)CCl [Compound 41]",
    "testReadout": "IC50",
    "result": "> 1000 µM"
  }
]
